Form field: growth (one value per entry).
- Test system: 786-0 renal
- experiment_description: NCI-60 one-dose screen, 48 h (100 = growth as untreated, 0 = no growth, -100 = all killed)
- setup_conditions: 10 µM unless noted
About 83,000 compounds went through this panel and 20% of them were active in at least one assay; those are over-represented in the sample as a whole.
Please reply with the bare figure in % and do not write the unit itself.

COC(=O)[C@]12CC[C@@H](C)[C@H](C)[C@@H]1C1=CC[C@@H]3[C@@]4(C)C(C=O)=C[C@@](C)(COS(C)(=O)=O)C4=CC[C@@]3(C)[C@]1(C)CC2; -66
Nc1c(C(=O)c2ccccc2)sc2nc(-c3cccs3)ccc12; 51.7
O=C(O)c1ccc2c(c1)nc(Nc1cccc(Cl)c1)c1ccncc12; 17.5
CCCCn1c(C)nc2ccc(Nc3nc(N4CCN(C)CC4)nc4nc[nH]c34)cc21; 92.8
Cc1cc(Nc2cc(N3CCN(C)CC3)nc(/C=C/c3ccccc3)n2)n[nH]1; -94.3

Please give the measured growth for this compound: "CN1CCN(c2ccc(C(=O)Nc3n[nH]c4ccc(Cc5cc(F)cc(F)c5)cc34)c(NC3CCOCC3)c2)CC1"
-95.1

Please give the measured growth for this compound: CC1CCC(n2cnc3c(Cl)ncnc32)O1 (centres undefined)
98.1

Please give the measured growth for this compound: "Cc1ccc(-c2cc3c(SCC(=O)Nc4cc(C(F)(F)F)ccc4Cl)nccn3n2)cc1"
54.7

Please give the measured growth for this compound: "CN1CCN(CC(=O)Nc2ccc(-c3nc4ccccc4s3)cc2)CC1"
78.7

---

- Tested on: NCI-H322M lung
- experiment_description: NCI-60 one-dose screen, 48 h (100 = growth as untreated, 0 = no growth, -100 = all killed)
- setup_conditions: 10 µM unless noted
The panel holds about 83,000 compounds, 20% with a hit somewhere; the sample as a whole holds those more often.
assay_endpoint: growth (%)
Please reply with the bare figure in % and do not write the unit itself.

Recorded results for 5 molecules are shown here.
COc1cnc2c(c1)C(=O)c1c-2n(CCCn2ccnc2)c(=O)c2cc(Cl)ccc12; 22.4
COc1ccc2c(c1)cn1c3ccc(O)cc3nc(N)c21; 40.2
Cc1cc(C(=O)NOCCO)c(Nc2ccc(I)cc2F)n(C)c1=O; 19.8
COc1cccc(Nc2ncnn3ccc(CN4CC[C@@H](N)[C@H](O)C4)c23)c1; 0.241
O=C(NC1CCNCC1)c1[nH]ncc1NC(=O)c1c(Cl)cccc1Cl; 5.64

Now look at this one.
Write down the reported growth of CC1(O)CCC(Nc2cc(-c3ccc(C(F)(F)F)cc3)c(C#N)c3nc4ccccc4n23)CC1 (stereo not given) , test system: NCI-H322M lung.
89.9

---

- Test system: NCI-H322M lung
- experiment_description: NCI-60 one-dose screen, 48 h
- setup_conditions: 10 µM unless noted
About 83,000 compounds went through this panel and 20% of them were active in at least one assay; those are over-represented in the sample as a whole. The source made the active and inactive calls. The calls were made as follows: active = growth percent below 10; inactive = the rest.
Pick one and only one: active, inactive

Worked cases, answers included:
Nc1c(C(=O)c2ccccc2)sc2nc(-c3cccs3)ccc12; inactive
Brc1ccc([I+]c2ccc(Br)cc2)cc1; inactive
CC(=O)Oc1ccccc1C(=O)N=C1[Se]CCN1C(=O)c1ccccc1OC(C)=O; active
CC(C)(C)c1ccc(Cn2cc(CSc3nc4ccccc4s3)nn2)cc1; inactive
COc1cc2c(cc1OCCCN1Cc3ccc(OCCCCC(=O)N4CCC(CCN5CCCC5)CC4)cc3C1)N=C(N)C21CCCC1; inactive

Which outcome did this test record for the compound O=C(O)C1(Cc2cccc(Nc3nccs3)n2)CCC(Oc2cccc(Cl)c2F)CC1 (stereo not given) ?
inactive

Which outcome did this test record for the compound "Cn1ccnc1C(=O)/C=C/c1ccc(CC(=O)Nc2ccc(C(F)(F)F)cc2)cc1" ?
active

Which outcome did this test record for the compound "CC(C)c1cc(CNc2nc(Nc3cc(C4CC4)[nH]n3)cc(N3CCN(C)CC3)n2)on1" ?
active

Which outcome did this test record for the compound Clc1ccc(C(Cn2ccnc2)OCc2ccsc2Cl)c(Cl)c1 (stereo not given) ?
inactive

Which outcome did this test record for the compound "CCN1CCN(c2cc(C)nc(N(CCCNc3ccnc4cc(Cl)ccc34)Cc3ccc4c(c3)OCO4)n2)CC1" ?
active

---

- System: IGROV1 ovarian
- experiment_description: NCI-60 one-dose screen, 48 h (100 = growth as untreated, 0 = no growth, -100 = all killed)
- setup_conditions: 10 µM unless noted
Compounds without any hit were thinned out: in the full panel of roughly 83,000, 20% have a hit.
assay_endpoint: growth (%)
Please reply with the bare figure in % and do not write the unit itself.

Recorded results for 4 compounds are shown here.
O=C(Nc1nc2cccc(-c3ccc(CN4CCS(=O)(=O)CC4)cc3)n2n1)C1CC1; 65
CC(C)(C)c1ccc(Cn2cc(CSc3nc4ccccc4s3)nn2)cc1; 90.7
N#Cc1cc2[nH]c3ccc(OC(F)(F)F)cc3c2oc1=O; 78.9
CC(C)C1CCC(C)C(C2(C#N)C(N)=NC(N)=C2C#N)C1=O (stereo not given); 94.4

Now look at this one.
Please give the measured growth for this compound: COC(=O)[C@@H](OC)[C@@H]1Cc2cc3cc(OC4CC(OC5CC(O)C(O)C(C)O5)C(O)C(C)O4)c(C)c(O)c3c(O)c2C(=O)[C@H]1OC1CC(OC2CC(OC3CC(C)(O)C(O)C(C)O3)C(O)C(C)O2)C(O)C(C)O1 (stereo not given in full)
28

---

Form field: growth (one value per entry).
- System: DU-145 prostate
- experiment_description: NCI-60 one-dose screen, 48 h (100 = growth as untreated, 0 = no growth, -100 = all killed)
- setup_conditions: 10 µM unless noted
Compounds without any hit were thinned out: in the full panel of roughly 83,000, 20% have a hit. Calls of active or inactive are those of the source. The calls were made as follows: active = growth percent below 10; inactive = the rest.

CC1(/C=N/NC(N)=S)NC(=O)NC1=O (stereo not given); 107% (inactive)
N#Cc1cc2[nH]c3ccc(OC(F)(F)F)cc3c2oc1=O; 99.4% (inactive)
C[C@@H]1COCCN1c1cc(C2([S@](C)(=N)=O)CC2)nc(-c2ccnc3[nH]ccc23)n1; 17.5% (inactive)

Write down the reported growth of "Cc1c(N)ccc(-c2ccc(N)c(C)c2S(=O)(=O)O)c1S(=O)(=O)O" , test system: DU-145 prostate.
111% (inactive)

Write down the reported growth of "O=c1[nH]c([C@@H]2CCCN2)nc2c1oc1ccc(Cl)cc12" , test system: DU-145 prostate.
73.1% (inactive)

Write down the reported growth of "CCCCN1C(=O)c2cccc3c(-c4ccc5c(c4)ncn5C4CCCCC4)ccc(c23)C1=O" , test system: DU-145 prostate.
101% (inactive)

Write down the reported growth of O=C1CC(c2ccc3c(c2)OCO3)c2ncn(-c3ccc(Cl)cc3)c2N1 (stereo not given) , test system: DU-145 prostate.
18.3% (inactive)

Write down the reported growth of "CN1CCN(Cc2ccc(NC(=O)c3[nH]ncc3Nc3ncnc4sc5c(c34)CCCC5)cc2)CC1" , test system: DU-145 prostate.
-86.7% (active)

Write down the reported growth of "C=CC(=O)N1CCC(Oc2cc3c(Nc4ccc(Cl)c(Cl)c4F)ncnc3cc2OC)CC1" , test system: DU-145 prostate.
24.2% (inactive)

Write down the reported growth of "C1=C\COCc2cc(ccc2OCCN2CCCC2)Nc2nccc(n2)-c2cccc(c2)COC/1" , test system: DU-145 prostate.
13.7% (inactive)

---

Form field: growth (one value per entry).
- System: A549/ATCC NSCLC
- experiment_description: NCI-60 one-dose screen, 48 h (100 = growth as untreated, 0 = no growth, -100 = all killed)
- setup_conditions: 10 µM unless noted
- Method: Growth inhibition of the A549/ATCC human Non-Small Cell Lung tumor cell line is measured as a screen for anti-cancer activity. Cells are grown in 96 well plates and exposed to the test compound for 48 hours. Compounds are tested at a single concentration, which is 10^-5 M for most compounds. The reported endpoint is percent growth (GI% or GIPRCNT), where numbers from 0 - 100% represent growth inhibition, and numbers from -100% - 0 represent cell death. […]
This is part of a sample that, as a whole, favours compounds with a hit. Of some 83,000 tested, about 20% had one in any assay.
Please reply with the bare figure in % and do not write the unit itself.

Recorded results for 2 molecules are shown here.
CCc1nc2cc(/C=C/C(=O)NO)ccc2c(=O)n1CCc1ccc(F)cc1; 7.13
COC(=O)Nc1nc2ccc(C(=O)c3ccc(N(C)C4COC4)cc3)cc2[nH]1; 14.9

Please give the measured growth for this molecule: "COc1cc(N2CCC(N3CCN(C)CC3)CC2)ccc1Nc1ncnc(Nc2ccccc2S(=O)(=O)C(C)C)n1"
104

Please give the measured growth for this molecule: "COc1cc2ncnc(Oc3cccc(NC(=O)Nc4cc(C(C)(C)C(F)(F)F)on4)c3)c2cc1OC"
33.4

Please give the measured growth for this molecule: "Cn1ncc(Cl)c1-c1cc(C(=O)N[C@H](CN)Cc2ccc(F)c(F)c2)oc1Cl"
-53.4

Please give the measured growth for this molecule: "Cc1sc2c(c1C)c(=O)nc1c(-c3nc4ccccc4s3)n[nH]n12"
97.2

Please give the measured growth for this molecule: "CO[C@H]1C[C@@H]2CC[C@@H](C)[C@@](O)(O2)C(=O)C(=O)N2CCCC[C@H]2C(=O)O[C@H]([C@H](C)C[C@@H]2CC[C@@H](OCCO)[C@H](OC)C2)CC(=O)[C@H](C)/C=C(\C)[C@@H](O)[C@H](OC)C(=O)[C@H](C)C[C@H](C)\C=C/C=C/C=C/1C"
44.6

Please give the measured growth for this molecule: "CCNC(=O)C#Cc1ccc2c(C(=Nc3ccc(CN(C)C)cc3)c3ccccc3)c(O)[nH]c2c1"
6.49
